System: guinea pigs' skin
Test: Blocking effects against UV ray irradiated on guinea pigs' skin
Type: in vivo, male Hartley guinea pigs
Details: total score for 2.5% and 5% ointments, 6 irradiated sites each scored 0-4, complete blocking = 24; UV 3000 Lux for 90 s, read 24 hours after irradiation
Description: Each compound of the present invention and commercially available p-methoxy cinnamic acid-2-ethyl hexyl as a positive reference were mixed with an ointment base (Plastibase), and 2.5% (mass % of active ingredient) and 5% ointment were prepared for each. The belly area of male Hartley guinea pigs that were 6 to 10 weeks old was shaved, and then further close shaved using an electric shaver. […]
Cut-off 20 on UV ray blocking effect score: below means Fulfilled, at or above means Not fulfilled.

Just wondering, is UV ray blocking effect score of COc1cccc(C(=O)Oc2ccc(C)cc2)c1 below 20?
Fulfilled

Just wondering, is UV ray blocking effect score of Cc1ccccc1OC(=O)c1ccc2ccccc2c1 [CU-2010, o-tolyl-2-naphthyl carboxylate] below 20?
Not fulfilled

Just wondering, is UV ray blocking effect score of COc1ccc(C(=O)Oc2ccc(C)cc2)cc1 [CU-5009, p-tolyl anisate] below 20?
Fulfilled

Just wondering, is UV ray blocking effect score of CCCCC(CC)COC(=O)C=Cc1ccc(OC)cc1 (stereo not shown) [p-Methoxy-cinnamic acid-2-ethyl hexyl, reference compound] below 20?
Fulfilled

Just wondering, is UV ray blocking effect score of COc1cccc(C(=O)Oc2ccccc2C)c1 below 20?
Fulfilled

Just wondering, is UV ray blocking effect score of O=C(Oc1cccc2ccccc12)c1ccccc1F below 20?
Not fulfilled

Just wondering, is UV ray blocking effect score of Cc1ccc([N+](=O)[O-])cc1OC(=O)C=Cc1ccccc1 below 20?
Fulfilled

Just wondering, is UV ray blocking effect score of O=C(Oc1ccc2ccccc2c1)c1ccccc1F below 20?
Fulfilled

###

tested on: mice; test: Acute toxicity resulting from single under skin injection in mice; assay type: in vivo, male ddY mice; settings: single under skin injection 1 g/kg, observed 1 week

{"Molecule": "COc1ccc(C(=O)Oc2ccc(C)cc2)cc1 [CU-5009, p-tolyl anisate]", "Observed items": "Weight reduction"}
{"Molecule": "Cc1ccc(OC(=O)c2ccc3ccccc3c2)cc1 [CU-5004, p-tolyl-2-naphthyl carboxylate]", "Observed items": "Weight reduction"}
{"Molecule": "COc1cccc(C(=O)Oc2ccc(C)cc2)c1", "Observed items": "Weight reduction"}

Reference source: patent US7361785B2
